Assay: Pharmacokinetics in male CD-1 mice
Type: in vivo
Settings: mouse, 3 mg/kg IV, mean plasma
parameter.measured: clearance (mL/min/kg)
Enter your answer as a number in mL/min/kg; do not include the unit.

IN: Consider the compound C=C(F)C(=O)N1CCN(c2nc(OC[C@@H]3CCCN3C)nc3cc(-c4cccc5cccc(Cl)c45)cnc23)C[C@@H]1CC#N [Example 2] and give its measured clearance.
OUT: 20.4

* * *

Experiment: Pharmacokinetics in male CD-1 mice
Assay type: in vivo
Settings: mouse, 3 mg/kg IV, mean plasma
parameter.measured: AUC(0-t) (ng·h/mL)
Enter your answer as a number in ng·h/mL; do not include the unit.

IN: Consider the compound C=C(F)C(=O)N1CCN(c2nc(OC[C@@H]3CCCN3C)nc3cc(-c4cccc5cccc(Cl)c45)cnc23)C[C@@H]1CC#N and give its measured AUC(0-t).
OUT: 2220
